This collection of values is drawn from ChEMBL document CHEMBL4196061.

# pIC50 annotations
Test system: SK-OV-3
Assay: Antiproliferative activity against human SKOV3 cells after 48 hrs by CCK-8 assay
Format: functional, cell-based
Settings: SK-OV-3, 48 h
pIC50: −log10 of the molar value.
Assay metric: pIC50

>>> print(df.to_string())
                                  cpd_smiles  bound_operator  observed_measurement
 0  O=P(c1ccccc1)(c1ccccc1)c1cccc2c(-c3ccc(F)cc3)cc(-c3ccc(F)cc3)nc12               =                  5.17
 1  Fc1ccc([C@@H]2C[C@H](c3ccccc3)c3cccc(P(=S)(c4ccccc4)c4ccccc4)c3N2)cc1               <                  4.30
 2  O=P(c1ccccc1)(c1ccccc1)c1cccc2c1N[C@H](c1ccccn1)C[C@@H]2c1ccccc1               =                  4.72
 3  Cc1ccc([C@H]2C[C@@H](c3ccc(F)cc3)Nc3c2cccc3P(c2ccccc2)c2ccccc2)cc1               <                  4.30
 4  S=P(c1ccccc1)(c1ccccc1)c1cccc2c1N[C@H](c1ccc3ccccc3c1)C[C@@H]2c1ccccc1               <                  4.30
 5  O=P(c1ccccc1)(c1ccccc1)c1cccc2c(-c3ccccc3)cc(-c3ccc(F)cc3)nc12               =                  5.09
 6  COc1ccccc1-c1cc(-c2ccccc2)c2cccc(P(=O)(c3ccccc3)c3ccccc3)c2n1               =                  4.88
 7  COc1ccc([C@@H]2C[C@H](c3ccc(C)cc3)c3cccc(P(c4ccccc4)c4ccccc4)c3N2)cc1               <                  4.30
 8  Cc1ccc(-c2cc(-c3ccccc3)nc3c(P(=O)(c4ccccc4)c4ccccc4)cccc23)cc1               =                  4.76
 9  O=P(c1ccccc1)(c1ccccc1)c1cccc2c(-c3ccccc3)cc(-c3ccccn3)nc12               =                  4.76
10  Fc1ccc(-c2cc(-c3ccc(F)cc3)c3cccc(P(=S)(c4ccccc4)c4ccccc4)c3n2)cc1               <                  4.30
11  S=P(c1ccccc1)(c1ccccc1)c1cccc2c(-c3ccccc3)cc(-c3ccccc3)nc12               <                  4.30
12  O=P(c1ccccc1)(c1ccccc1)c1cccc2c(-c3ccccc3)cc(-c3cccc4ccccc34)nc12               <                  4.30
13  S=P(c1ccccc1)(c1ccccc1)c1cccc2c1N[C@H](c1ccccc1)C[C@@H]2c1ccccc1               <                  4.30
14  O=P(c1ccccc1)(c1ccccc1)c1cccc2c1N[C@H](c1ccccc1)C[C@@H]2c1ccccc1               <                  4.30
15  Fc1ccc([C@@H]2C[C@H](c3ccccc3)c3cccc(P(=S)(c4ccccc4)c4ccccc4)c3N2)cc1F               <                  4.30
16  O=P(c1ccccc1)(c1ccccc1)c1cccc2c(-c3ccccc3)cc(-c3ccccc3)nc12               =                  4.84
